The origin of these recorded values is the emibetuzumab library of Makowski et al. (2022).

B1: VH:VL chains; a variant is named by its letters at X, in order (parent)
chain 1: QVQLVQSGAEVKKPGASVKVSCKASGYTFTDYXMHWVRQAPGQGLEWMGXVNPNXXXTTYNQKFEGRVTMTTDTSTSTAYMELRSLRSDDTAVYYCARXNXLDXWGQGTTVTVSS
chain 2: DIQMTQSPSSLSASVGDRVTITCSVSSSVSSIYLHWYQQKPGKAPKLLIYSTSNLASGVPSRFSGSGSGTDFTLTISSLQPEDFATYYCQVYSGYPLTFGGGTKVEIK

Variants of: B1
Assay: yeast display scFab, FACS + sequencing
METRIC: non-specific binding call

Examples with their reported non-specific binding call follow.
SEGTGSGD : no binding
VEAGDDGA : no binding
VAGTGDVA : no binding
FRRGDSAA : binds
YGETGFGS : binds
YEGTGDVV : no binding

Notebook: `DTGEDDVY` , non-specific binding call read as no binding

Documented non-specific binding call of `SETKGDWA` : no binding

So, `DAGGGAVV` ? Its non-specific binding call was no binding

The recorded non-specific binding call for entry `VRAGDSSA` equals no binding

Entry `YRAKGAGS` — recorded non-specific binding call = binds

Given item `YRGANSGA` , the value recorded as its non-specific binding call is binds

GET /value?item= `YKEEDSLD` &field=non-specific binding call returns no binding

Given item `DRGGDDVY` , the value recorded as its non-specific binding call is no binding
